Every entry's value here was drawn from patent US20070225253A1.

measurement.protocol: Pharmacokinetics after intravenous administration to sheep
Type: in vivo
assay.context: both sexes, serum, iv; I.V. solution, 5 mg/kg, sheep n = 6, mean ± S.D.; read-out: AUC0-168 h
observable: AUC(0-t) (µg·h/mL)
Provide only the numeric value, understood in µg·h/mL.

Ask | Look up and report measured AUC(0-t) for this entry: "O=C1NC(=O)C(c2ccc(-c3ccccc3)cc2)(N2CCN(c3ccc([N+](=O)[O-])cc3)CC2)C(=O)N1"
Reply | 858

====

target.of.assay: Human MMP-1 (Homo sapiens, UniProt P03956)
Sequence (P03956 100-469): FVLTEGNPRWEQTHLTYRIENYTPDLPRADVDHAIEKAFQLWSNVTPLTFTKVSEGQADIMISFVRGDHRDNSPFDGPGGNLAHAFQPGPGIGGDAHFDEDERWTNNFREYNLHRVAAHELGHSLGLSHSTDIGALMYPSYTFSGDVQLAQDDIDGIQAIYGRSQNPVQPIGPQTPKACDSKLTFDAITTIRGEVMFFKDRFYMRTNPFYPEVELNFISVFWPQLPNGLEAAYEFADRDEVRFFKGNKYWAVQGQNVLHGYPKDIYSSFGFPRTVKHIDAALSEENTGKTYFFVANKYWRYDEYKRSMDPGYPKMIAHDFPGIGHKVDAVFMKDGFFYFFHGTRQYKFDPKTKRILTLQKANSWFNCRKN
measurement.protocol: MMP enzymatic activity, modified fluorescence assay (DNP-substrate)
Assay type: biochemical
observable: IC50
State the result as a value with its unit after it.

Ask | Return the recorded IC50 value; entry: "O=C1NC(=O)C(c2ccc(-c3ccccc3)cc2)(N2CCN(c3ccc([N+](=O)[O-])cc3)CC2)C(=O)N1"
Reply | 53 µM
